Data provenance is PubChem BioAssay AID624008.

Target: Phospholipase D1 (Homo sapiens) + Phospholipase D1 (Homo sapiens) (UniProt Q13393+Q13393)
Sequence (Q13393 whole entry, looked up): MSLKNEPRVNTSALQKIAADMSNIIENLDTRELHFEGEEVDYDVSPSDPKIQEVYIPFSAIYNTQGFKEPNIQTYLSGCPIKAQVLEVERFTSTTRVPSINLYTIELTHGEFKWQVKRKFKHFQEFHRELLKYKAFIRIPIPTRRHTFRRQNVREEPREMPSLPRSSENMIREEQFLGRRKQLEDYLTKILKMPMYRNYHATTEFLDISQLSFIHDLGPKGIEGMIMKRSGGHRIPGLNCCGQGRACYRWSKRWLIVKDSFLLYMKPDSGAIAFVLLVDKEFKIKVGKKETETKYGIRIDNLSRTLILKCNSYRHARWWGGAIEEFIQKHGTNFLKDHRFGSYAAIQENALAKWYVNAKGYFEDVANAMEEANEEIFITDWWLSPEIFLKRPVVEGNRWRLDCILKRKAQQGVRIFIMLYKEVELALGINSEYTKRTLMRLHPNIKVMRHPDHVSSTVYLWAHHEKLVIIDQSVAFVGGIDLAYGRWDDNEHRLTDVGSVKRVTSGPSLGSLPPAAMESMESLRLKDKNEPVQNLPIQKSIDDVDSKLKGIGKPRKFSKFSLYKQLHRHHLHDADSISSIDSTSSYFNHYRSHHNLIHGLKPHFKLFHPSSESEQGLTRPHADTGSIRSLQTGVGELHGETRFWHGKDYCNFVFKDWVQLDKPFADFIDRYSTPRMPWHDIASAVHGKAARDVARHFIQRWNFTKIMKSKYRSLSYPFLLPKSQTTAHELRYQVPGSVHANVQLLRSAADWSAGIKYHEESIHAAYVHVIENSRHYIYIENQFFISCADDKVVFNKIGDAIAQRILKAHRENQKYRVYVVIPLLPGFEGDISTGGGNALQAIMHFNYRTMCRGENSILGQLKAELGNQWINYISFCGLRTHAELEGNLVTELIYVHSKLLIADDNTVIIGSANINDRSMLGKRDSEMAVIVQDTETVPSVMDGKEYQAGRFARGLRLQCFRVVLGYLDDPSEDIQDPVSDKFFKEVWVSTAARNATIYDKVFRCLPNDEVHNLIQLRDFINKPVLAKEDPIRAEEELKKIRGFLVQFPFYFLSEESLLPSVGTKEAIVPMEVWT
Sequence (Q13393 whole entry, looked up): as above
Experiment: phospholipase D1 activity inhibition in cells – Calu-1 cells, Lib32, assay 1A (AID 624008)
Conditions: PLD1 cellular activity, percent of control, concentration not given here
Activity calls are given as the source filed them. The rule behind the calls is not given here.
Outcome field: choose from active, inactive

O=C(NCCN1CCC2(CC1)C(=O)NCN2c1cccc(F)c1)c1c(F)ccc(F)c1Cl ... inactive
C[C@@H](CN1CCC2(CC1)C(=O)NCN2c1cccc(F)c1)NC(=O)c1ccc(F)cc1F ... active
O=C(NCCN1CCC2(CC1)C(=O)NCN2c1cccc(F)c1)c1cccc(C(F)(F)F)c1 ... inactive
C[C@@H](CN1CCC2(CC1)C(=O)NCN2c1cccc(F)c1)NC(=O)c1cccc([N+](=O)[O-])c1 ... active

Qu. Test call, this compound: COc1cc(C(=O)N[C@@H](C)CN2CCC3(CC2)C(=O)NCN3c2cccc(F)c2)cc(OC)c1OC
Ans. active

Qu. Test call, this compound: C[C@@H](CN1CCC2(CC1)C(=O)NCN2c1cccc(F)c1)NC(=O)c1ccc(Cl)cc1Cl
Ans. active

Qu. Test call, this compound: O=C(NCCN1CCC2(CC1)C(=O)NCN2c1cccc(F)c1)c1ccc(F)cc1
Ans. inactive

Qu. Test call, this compound: O=C(NCCN1CCC2(CC1)C(=O)NCN2c1cccc(F)c1)c1cccc2ccccc12
Ans. inactive

Qu. Test call, this compound: C[C@@H](CN1CCC2(CC1)C(=O)NCN2c1cccc(F)c1)NC(=O)c1cccc2ccccc12
Ans. active

Qu. Test call, this compound: C[C@@H](CN1CCC2(CC1)C(=O)NCN2c1cccc(F)c1)NC(=O)c1ccc(F)c(F)c1
Ans. active

----------
Target: Phospholipase D1 (Homo sapiens) + Phospholipase D1 (Homo sapiens) (UniProt Q13393+Q13393)
Assay: phospholipase D1 activity inhibition in cells – Calu-1 cells, Lib32, assay 1A (AID 624008)
Conditions: PLD1 cellular activity, percent of control, stronger effect = lower value, concentration not given here
The reader will find reported remaining activity values listed item by item below.
Kindly answer with a numeric value in %, unit omitted.

Example cases with answers are listed next.
O=C(Cc1ccc(F)cc1)NCCN1CCC2(CC1)C(=O)NCN2c1cccc(F)c1 ... 99.3
C[C@@H](CN1CCC2(CC1)C(=O)NCN2c1cccc(F)c1)NC(=O)c1ccc(F)cc1 ... 24
C[C@@H](CN1CCC2(CC1)C(=O)NCN2c1cccc(F)c1)NC(=O)c1ccccc1I ... 91.6

Qu. Given C[C@@H](CN1CCC2(CC1)C(=O)NCN2c1cccc(F)c1)NC(=O)c1ccc(Br)cc1 , state its recorded remaining activity.
Ans. 10.2

Qu. Given C[C@@H](CN1CCC2(CC1)C(=O)NCN2c1cccc(F)c1)NC(=O)c1c(F)cccc1F , state its recorded remaining activity.
Ans. 75.1

Qu. Given O=C(NCCN1CCC2(CC1)C(=O)NCN2c1cccc(F)c1)c1ccc(Cl)cc1Cl , state its recorded remaining activity.
Ans. 107

Qu. Given O=C(NCCN1CCC2(CC1)C(=O)NCN2c1cccc(F)c1)c1ccccn1 , state its recorded remaining activity.
Ans. 93.5

Qu. Given C[C@@H](CN1CCC2(CC1)C(=O)NCN2c1cccc(F)c1)NC(=O)c1cccc(C(F)(F)F)c1 , state its recorded remaining activity.
Ans. 82.3

Qu. Given O=C(NCCN1CCC2(CC1)C(=O)NCN2c1cccc(F)c1)c1ccc(F)cc1F , state its recorded remaining activity.
Ans. 99

----------
Biological target: Phospholipase D1 (Homo sapiens) + Phospholipase D1 (Homo sapiens) (UniProt Q13393+Q13393)
Assay: phospholipase D1 activity inhibition in cells – Calu-1 cells, Lib32, assay 1A (AID 624008)
Settings: PLD1 cellular activity, percent of control, stronger effect = lower value, concentration not given here
The source made the active and inactive calls. How the calls were made is not given here.
The reader will find reported remaining activity values listed item by item below.

Example cases with answers are listed next.
O=C(NCCN1CCC2(CC1)C(=O)NCN2c1cccc(F)c1)c1cccc2c1OCO2 ... 102% (inactive)
C[C@@H](CN1CCC2(CC1)C(=O)NCN2c1cccc(F)c1)NC(=O)c1c(F)ccc(F)c1Cl ... 81.7% (inactive)
O=C(NCCN1CCC2(CC1)C(=O)NCN2c1cccc(F)c1)c1ccc(Br)cc1 ... 98.5% (inactive)
COc1cc(C(=O)NCCN2CCC3(CC2)C(=O)NCN3c2cccc(F)c2)cc(OC)c1OC ... 113% (inactive)
O=C(c1ccc(F)cc1)N(CCN1CCC2(CC1)C(=O)NCN2c1cccc(F)c1)C(=O)c1ccc(F)cc1 ... 109% (inactive)

Qu. Given O=C(NCCN1CCC2(CC1)C(=O)NCN2c1cccc(F)c1)c1cccc([N+](=O)[O-])c1 , state its recorded remaining activity.
Ans. 101% (inactive)

Qu. Given C[C@@H](CN1CCC2(CC1)C(=O)NCN2c1cccc(F)c1)NC(=O)Cc1ccc(F)cc1 , state its recorded remaining activity.
Ans. 102% (inactive)

Qu. Given O=C(NCCN1CCC2(CC1)C(=O)NCN2c1cccc(F)c1)c1ccccc1I , state its recorded remaining activity.
Ans. 99.7% (inactive)

Qu. Given C[C@@H](CN1CCC2(CC1)C(=O)NCN2c1cccc(F)c1)NC(=O)c1cccc(F)c1 , state its recorded remaining activity.
Ans. 45.7%
